molecular target: human mitochondrial CIpP (HsCIpP) (Homo sapiens); construct: made in house; host or cells: E. coli SG1146 (BL21(DE3) ΔclpP::cat); experiment: Screen of ADEP analogs against HsCIpP: relative degradation (RD) index, casein-FITC degradation relative to E. coli CIpAP; format: biochemical; set-up: key: casein-FITC degradation by HsClpP relative to EcClpAP; details: RD value at 1 μM of the ADEP analog
Where a SMILES comes first, the peptide text is derived from it. Bridges are numbered along the chain shown (N, C = ends). [ ]: non-standard residue; d: D form. The star is where a group is joined. Phe(3,5-F2) = N[C@@H](Cc1cc(F)cc(F)c1)C(=O)O; Pro(4R-Me) = C[C@H]1CN[C@H](C(=O)O)C1; Heptenoyl(2E) = CCCC/C=C/C(=O)*; aThr = C[C@H](O)[C@H](N)C(=O)O; Pip = O=C(O)[C@@H]1CCCCN1; Dap = NC[C@H](N)C(=O)O; X3 = O=C(/C=C/CC1CC1)*
Each entry below carries its recorded Hs RD1.
The reply should be a number, written without any unit.

Worked cases, Hs RD1 given:
CCCC/C=C/C(=O)N[C@@H](Cc1cc(F)cc(F)c1)C(=O)N[C@H]1CNC(=O)[C@@H]2C[C@@H](C)CN2C(=O)[C@H](C)NC(=O)[C@@H]2CCCCN2C(=O)[C@@H]2CCCN2C1=O [ADEP-32] ({Heptenoyl(2E)}-[Phe(3,5-F2)][Dap]P[Pip]A[Pro(4R-Me)]; lactam 2-C) = 0.79
CCCC/C=C/C(=O)N[C@@H](Cc1cc(F)cc(F)c1)C(=O)N[C@H]1COC(=O)[C@@H]2C[C@@H](C)CN2C(=O)[C@H](C)NC(=O)[C@@H]2CCCN2C(=O)[C@@H]2CCCN2C1=O [ADEP-15] = 0.58
CCC/C=C/C(=O)N[C@@H](Cc1cccc(F)c1)C(=O)N[C@H]1COC(=O)[C@@H]2C[C@@H](C)CN2C(=O)[C@H](C)NC(=O)[C@@H]2CCCCN2C(=O)[C@@H]2CCCN2C1=O [ADEP-20] = 0.53

Returns the measured Hs RD1 for the input compound. Input: C[C@@H]1C[C@H]2C(=O)O[C@@H](C)[C@H](NC(=O)[C@H](Cc3cc(F)cc(F)c3)NC(=O)/C=C/CC3CC3)C(=O)N3CCC[C@H]3C(=O)N3CCCC[C@H]3C(=O)N[C@@H](C)C(=O)N2C1 [ADEP-13] (X3-[Phe(3,5-F2)][aThr]P[Pip]A[Pro(4R-Me)]; ester 2-C)
0.59

====

target: human mitochondrial CIpP (HsCIpP) (Homo sapiens); construct: made in house; host or cells: E. coli SG1146 (BL21(DE3) ΔclpP::cat); experiment: Screen of ADEP analogs against HsCIpP: relative degradation (RD) index, casein-FITC degradation relative to E. coli CIpAP; assay type: biochemical; parameters: key: casein-FITC degradation by HsClpP relative to EcClpAP; conditions: RD value at 25 μM of the ADEP analog; measure of ability to activate HsCIpP
Where a SMILES comes first, the peptide text is derived from it. Bridges are numbered along the chain shown (N, C = ends). [ ]: non-standard residue; d: D form. The star is where a group is joined. Octatrienoyl(2E,4E,6E) = C/C=C/C=C/C=C/C(=O)*; Phe(3,5-F2) = N[C@@H](Cc1cc(F)cc(F)c1)C(=O)O; 2Nal = N[C@@H](Cc1ccc2ccccc2c1)C(=O)O; Pro(4R-Me) = C[C@H]1CN[C@H](C(=O)O)C1; Heptenoyl(2E) = CCCC/C=C/C(=O)*; aThr = C[C@H](O)[C@H](N)C(=O)O; Pip = O=C(O)[C@@H]1CCCCN1; NMeA = CN[C@@H](C)C(=O)O; X11 = O=C(/C=C/C=C/CO)*; Dap = NC[C@H](N)C(=O)O; X10 = CCCC#CC(=O)*; X9 = CCCCC#CC(=O)*
Decision: Hs RD25 beneath 0.9 gives 1.0; Hs RD25 meeting or exceeding 0.9 gives 0.0.

Example cases with answers are listed next.
C[C@@H]1C[C@H]2C(=O)OC[C@H](NC(=O)[C@H](Cc3ccccc3)NC(=O)/C=C/C=C/CO)C(=O)N3CCC[C@H]3C(=O)N(C)[C@@H](C)C(=O)N[C@@H](C)C(=O)N2C1 [ADEP-36] (X11-FSP[NMeA]A[Pro(4R-Me)]; ester 2-C) = 1.0
C/C=C/C=C/C=C/C(=O)N[C@@H](Cc1ccccc1)C(=O)N[C@H]1COC(=O)[C@@H]2C[C@@H](C)CN2C(=O)[C@H](C)NC(=O)[C@H](C)N(C)C(=O)[C@@H]2CCCN2C1=O [ADEP-05] ({Octatrienoyl(2E,4E,6E)}-FSP[NMeA]A[Pro(4R-Me)]; ester 2-C) = 0.0
CCCC/C=C/C(=O)N[C@@H](Cc1cc(F)cc(F)c1)C(=O)N[C@@H]1C(=O)N2CCC[C@H]2C(=O)N2CCCC[C@H]2C(=O)N[C@@H](C)C(=O)N2CCC[C@H]2C(=O)O[C@H]1C [ADEP-41] ({Heptenoyl(2E)}-[Phe(3,5-F2)][aThr]P[Pip]AP; ester 2-C) = 0.0

is_below(Hs RD25, 0.9) for C[C@@H]1C[C@H]2C(=O)OC[C@H](NC(=O)[C@@H](N)Cc3ccccc3)C(=O)N3CCC[C@H]3C(=O)N(C)[C@@H](C)C(=O)N[C@@H](C)C(=O)N2C1 [ADEP-31] (H-FSP[NMeA]A[Pro(4R-Me)]; ester 2-C) ?
1.0

Strictly below 0.9 in Hs RD25? CCCC#CC(=O)N[C@@H](Cc1ccccc1)C(=O)N[C@H]1COC(=O)[C@@H]2CCCN2C(=O)[C@H](C)NC(=O)[C@H](C)N(C)C(=O)[C@@H]2CCCN2C1=O [ADEP-23] (X10-FSP[NMeA]AP; ester 2-C)
1.0

Strictly below 0.9 in Hs RD25? CCCC/C=C/C(=O)N[C@@H](Cc1cc(F)cc(F)c1)C(=O)N[C@H]1CNC(=O)[C@@H]2C[C@@H](C)CN2C(=O)[C@H](C)NC(=O)[C@@H]2CCCCN2C(=O)[C@@H]2CCCN2C1=O [ADEP-32] ({Heptenoyl(2E)}-[Phe(3,5-F2)][Dap]P[Pip]A[Pro(4R-Me)]; lactam 2-C)
0.0

Please check: Hs RD25 for CCCCC#CC(=O)N[C@@H](Cc1ccccc1)C(=O)N[C@H]1COC(=O)[C@@H]2CCCN2C(=O)[C@H](C)NC(=O)[C@H](C)N(C)C(=O)[C@@H]2CCCN2C1=O [ADEP-12] (X9-FSP[NMeA]AP; ester 2-C) , strictly under 0.9 or not?
1.0

Is the reported Hs RD25 for CCCC/C=C/C(=O)N[C@@H](Cc1cc(F)cc(F)c1)C(=O)N[C@H]1COC(=O)[C@@H]2C[C@@H](C)CN2C(=O)[C@H](C)NC(=O)[C@H](C)N(C)C(=O)[C@@H]2CCCN2C1=O [ADEP-06] ({Heptenoyl(2E)}-[Phe(3,5-F2)]SP[NMeA]A[Pro(4R-Me)]; ester 2-C) strictly below 0.9?
0.0

For this molecule, is Hs RD25 lower than 0.9? CCCC/C=C/C(=O)N[C@@H](Cc1ccc2ccccc2c1)C(=O)N[C@H]1COC(=O)[C@@H]2C[C@@H](C)CN2C(=O)[C@H](C)NC(=O)[C@@H]2CCCCN2C(=O)[C@@H]2CCCN2C1=O [ADEP-43] ({Heptenoyl(2E)}-[2Nal]SP[Pip]A[Pro(4R-Me)]; ester 2-C)
1.0

Consider the molecule C[C@@H]1NC(=O)[C@H](C)N(C)C(=O)[C@@H]2CCCN2C(=O)[C@@H](NC(=O)[C@@H](N)Cc2ccccc2)COC(=O)[C@@H]2CCCN2C1=O [ADEP-40] (H-FSP[NMeA]AP; ester 2-C) . Is its Hs RD25 strictly less than 0.9?
1.0

====

List of Hs RD1 values.
molecular target: human mitochondrial CIpP (HsCIpP) (Homo sapiens, UniProt Q16740); construct: made in house; host or cells: E. coli SG1146 (BL21(DE3) ΔclpP::cat); experiment: Screen of ADEP analogs against HsCIpP: relative degradation (RD) index, casein-FITC degradation relative to E. coli CIpAP; type: biochemical; design: key: casein-FITC degradation by HsClpP relative to EcClpAP; conditions: RD value at 1 μM of the ADEP analog
Sequence (Q16740 57-277): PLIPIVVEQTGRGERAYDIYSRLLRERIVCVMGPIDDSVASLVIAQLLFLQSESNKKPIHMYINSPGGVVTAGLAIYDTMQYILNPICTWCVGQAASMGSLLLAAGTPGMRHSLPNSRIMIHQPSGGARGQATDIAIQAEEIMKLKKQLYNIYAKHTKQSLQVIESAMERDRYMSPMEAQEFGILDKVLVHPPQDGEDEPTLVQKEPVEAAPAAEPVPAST
Where a SMILES comes first, the peptide text is derived from it. Bridges are numbered along the chain shown (N, C = ends). [ ]: non-standard residue; d: D form. The star is where a group is joined. Phe(3,5-F2) = N[C@@H](Cc1cc(F)cc(F)c1)C(=O)O; Pro(4R-Me) = C[C@H]1CN[C@H](C(=O)O)C1; Heptenoyl(2E) = CCCC/C=C/C(=O)*; aThr = C[C@H](O)[C@H](N)C(=O)O; Pip = O=C(O)[C@@H]1CCCCN1; NMeA = CN[C@@H](C)C(=O)O; X1 = CCC/C=C/C=C/C(=O)*
# print the numeric value only

CCCC/C=C/C(=O)N[C@@H](Cc1cc(F)cc(F)c1)C(=O)N[C@@H]1C(=O)N2CCC[C@H]2C(=O)N2CCCC[C@H]2C(=O)N[C@@H](C)C(=O)N2CCC[C@H]2C(=O)O[C@H]1C [ADEP-41] ({Heptenoyl(2E)}-[Phe(3,5-F2)][aThr]P[Pip]AP; ester 2-C) = 0.79

Next molecule, Hs RD1 to be filled in.
Param item = CCC/C=C/C=C/C(=O)N[C@@H](Cc1ccccc1)C(=O)N[C@H]1COC(=O)[C@@H]2C[C@@H](C)CN2C(=O)[C@H](C)NC(=O)[C@H](C)N(C)C(=O)[C@@H]2CCCN2C1=O [ADEP-04] (X1-FSP[NMeA]A[Pro(4R-Me)]; ester 2-C) ; retrieve measured Hs RD1.
0.32
